Reported values of melting point for individual entries

// worked examples, melting point included
OC(CCN1CCN(c2cccc(C(F)(F)F)c2)CC1)COc1ccccc1 (stereo unspecified)	83 to 84 °C
O=Cc1cc2ccccc2nc1N1CCN(CC2CCCCC2)CC1	54 to 55 °C
CCc1c(C)c(NC(=O)CC(C)(C)C)c(C)c2c1OCC2c1ccc(C(C)C)cc1 (stereo unspecified)	135 to 136 °C
CCCCCCCCCCCCCCCCS(=O)(=O)Nc1ccc(OC)c(NC(=O)CC(=O)C2(C)COC(C)(C)OC2)c1	68 to 70 °C
FC(F)C(F)(F)Oc1cccc(Nc2nccc(-c3ccnc(Cl)c3)n2)c1	150 to 153 °C

Ask | Recorded melting point of CC1=C(CCCl)C(=O)C2Sc3ccccc3N2C1 (stereo unspecified) , please.
Reply | 114 °C

Ask | Need melting point of O=C(CF)CCCN1C(=O)c2ccccc2C1=O , thanks.
Reply | 92 °C

Ask | Tell me the measured melting point of O=C1O[C@H](Cc2ccon2)CN1c1ccc(N2CCC3(CC2)OCCO3)c(F)c1 , please.
Reply | 120 to 122 °C
